# System Under Test: Fructose-1,6-bisphosphatase 1 (Homo sapiens)
# Sequence (P09467 whole entry): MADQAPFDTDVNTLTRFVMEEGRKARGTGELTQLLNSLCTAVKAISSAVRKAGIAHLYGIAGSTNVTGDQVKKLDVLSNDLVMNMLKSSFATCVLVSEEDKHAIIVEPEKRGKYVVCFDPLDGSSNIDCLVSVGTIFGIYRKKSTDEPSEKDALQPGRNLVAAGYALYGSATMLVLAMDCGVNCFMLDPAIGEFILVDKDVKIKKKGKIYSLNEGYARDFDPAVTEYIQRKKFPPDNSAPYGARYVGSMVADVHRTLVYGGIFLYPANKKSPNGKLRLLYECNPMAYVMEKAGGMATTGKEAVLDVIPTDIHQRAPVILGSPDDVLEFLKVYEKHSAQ
# Assay Summary: Concentration required to inhibit the human liver recombinant fructose-1,6-bisphosphatase.
Quick reference for IC50 among some compounds
Quantity: IC50 (µM)

• C#Cc1cccc(Nc2ncnc3cc(OCC)c(OCC)cc23)c1 = 2.4
• COc1cc2nc(C)nc(Nc3cccc(Br)c3)c2cc1OC = 4.5
• COCCOc1cc2c(Nc3cccc(Br)c3)ncnc2cc1OC = 5.5
• COCCOc1ccc2ncnc(Nc3cccc(Br)c3)c2c1 = 2.9
• COc1cc2ncnc(Nc3cccc(Cl)c3)c2cc1OC = 1.3
• Brc1cccc(Nc2ncnc3cc4ccccc4cc23)c1 = 7.5
• CCOc1cc2ncnc(Nc3cccc(Cl)c3)c2cc1OCC = 1.6
• C#Cc1cccc(Nc2ncnc3cc(OC)c(OC)cc23)c1 = 0.9
• C#Cc1cc(Nc2ncnc3cc(OC)c(OC)cc23)ccc1F = 0.25
• Nc1cc2c(Nc3cccc(Br)c3)ncnc2cc1Cl = 11.9
• Brc1cccc(Nc2ncnc3cc4nc[nH]c4cc23)c1 = 4
• CCOc1cc2ncnc(Nc3cccc(Br)c3)c2cc1OCC = 1.7
• CCOc1cc2ncnc(Nc3ccc(F)c(Cl)c3)c2cc1OCC = 0.53
• COc1cc2ncnc(Nc3ccc(F)c(Cl)c3)c2cc1OC = 0.29
• CCOc1cc2ncnc(Nc3cccc(Br)c3)c2cc1[N+](=O)[O-] = 3.6
• CCOc1cc2ncnc(Nc3cccc(F)c3)c2cc1OCC = 9.2
• CCOc1cc2ncnc(Nc3cccc(I)c3)c2cc1OCC = 2.1
